Where these numbers come from: ChEMBL document CHEMBL4814061

Listing: pIC50 of selected compounds
# measured.target: Poly [ADP-ribose] polymerase 1 (Homo sapiens, UniProt P09874)
# Sequence (P09874 whole entry): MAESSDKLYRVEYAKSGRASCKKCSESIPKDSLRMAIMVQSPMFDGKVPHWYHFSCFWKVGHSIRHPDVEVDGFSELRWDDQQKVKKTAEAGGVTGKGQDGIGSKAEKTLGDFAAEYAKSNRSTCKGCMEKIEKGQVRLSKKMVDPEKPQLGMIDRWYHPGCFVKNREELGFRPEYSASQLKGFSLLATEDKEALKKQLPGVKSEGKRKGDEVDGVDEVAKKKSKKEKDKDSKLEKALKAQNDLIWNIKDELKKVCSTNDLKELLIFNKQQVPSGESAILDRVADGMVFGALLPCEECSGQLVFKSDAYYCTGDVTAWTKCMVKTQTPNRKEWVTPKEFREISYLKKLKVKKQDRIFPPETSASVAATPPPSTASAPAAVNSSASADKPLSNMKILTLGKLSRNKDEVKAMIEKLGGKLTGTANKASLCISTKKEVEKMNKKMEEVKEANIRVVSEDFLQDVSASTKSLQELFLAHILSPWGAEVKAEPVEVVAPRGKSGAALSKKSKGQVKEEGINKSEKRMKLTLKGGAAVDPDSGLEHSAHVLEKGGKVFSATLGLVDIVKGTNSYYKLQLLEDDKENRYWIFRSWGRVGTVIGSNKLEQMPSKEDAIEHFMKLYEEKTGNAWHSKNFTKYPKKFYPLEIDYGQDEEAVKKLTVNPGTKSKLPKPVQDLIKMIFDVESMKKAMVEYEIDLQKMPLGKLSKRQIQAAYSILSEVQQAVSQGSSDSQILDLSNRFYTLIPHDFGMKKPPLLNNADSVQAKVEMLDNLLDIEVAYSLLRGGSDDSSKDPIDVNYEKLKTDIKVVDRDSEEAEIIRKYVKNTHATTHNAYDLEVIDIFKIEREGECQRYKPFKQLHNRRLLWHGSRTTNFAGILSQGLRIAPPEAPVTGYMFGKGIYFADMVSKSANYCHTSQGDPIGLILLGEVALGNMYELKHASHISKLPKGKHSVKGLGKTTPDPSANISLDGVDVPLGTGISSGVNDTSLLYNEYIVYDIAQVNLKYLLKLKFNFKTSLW
# experiment: Inhibition of recombinant full length 6His-tagged PARP1 (unknown origin) incubated for 4 hrs by fluorescence anisotropy assay
Note: pIC50 values are expressed as the negative base-10 logarithm of concentration in M.

Example entries begin here.
{"item.smiles": "CNC(=O)c1ccc(N2CCN(Cc3cc4[nH]c(=O)c(CCF)cc4cn3)CC2)cn1", "test.result": 8.70}
{"item.smiles": "CCc1cc2cnc(CN3CCN(c4ccc(C(=O)NC)nc4Cl)CC3)cc2[nH]c1=O", "test.result": 8.52}
{"item.smiles": "CNC(=O)c1ccc(N2CCN(Cc3cc4[nH]c(=O)c(CC(F)F)cc4cn3)CC2)c(F)n1", "test.result": 8.52}
{"item.smiles": "CCc1cc2cnc(CN3CCN(c4ccc(C(=O)NC)nc4F)CC3)cc2[nH]c1=O", "test.result": 8.70}

# next compound below
Using known records, supply pIC50 for CCc1cc2cnc(CN3CCN(c4ccc(C(N)=O)nc4)CC3)cc2[nH]c1=O
8.70
